# protocol: NCI Yeast Anticancer Drug Screen. Data for the mlh1 rad18 strain (AID 175)
# conditionContext: S. cerevisiae mlh1 rad18 strain growth inhibition; at 50.0 µM (retest, dose inferred, filed as 5.0); stronger effect = higher value
The panel holds about 79,000 compounds, 15% with a hit somewhere; the sample as a whole holds those more often. Active and inactive are the calls of the source. Rule as the data show it: active = growth inhibition above about 70%; inactive = the rest.
valueKind: growth inhibition

molecule CC1CCN(CCCOC(=O)c2ccccc2)CC1 , growth inhibition observed: 74% (active)

Entry Cc1cccc(N2C(c3ccccc3)c3ccc(C)cc3NS2=O)c1 (stereo not drawn) , growth inhibition reported as -7% (inactive)

The reported growth inhibition of the molecule O=C(Nc1cccnc1)c1ccc(CSc2ccc(Cl)cc2)o1 was 94% (active)

Notebook: CC(c1ccc2ccccc2c1)c1c(F)cccc1C(=O)O (stereo not drawn) , growth inhibition read as 61% (inactive)

growth inhibition for CC(=O)NNc1ccc(Cl)cc1[N+](=O)[O-] is 69% (inactive)

// Nc1ccc(C(=O)Oc2cccccc2=O)cc1 : growth inhibition value = 78% (active)

Quick note, growth inhibition for CCCCCCCCCCCCNc1ccccn1 landed at 99% (active)

For reference, reported growth inhibition for N#CC(C#N)=C(C1CC1)C1CC1 stands at 94% (active)

Please fill in: growth inhibition reported for CN(C)CCC(=O)c1ccco1 = 92% (active)

growth inhibition in this record for N#Cc1c(Cl)cc(Cl)n2c1nc1ccccc12 : 97% (active)

// growth inhibition lookup, molecule = O=C(/C=C/c1cccnc1)c1cc(Cl)ccc1O , result: 48% (inactive)

Please fill in: growth inhibition reported for O=[N+]([O-])c1ccc2c(c1)/C(=N/O)c1ccccc1-2 = 38% (inactive)

Item: CN(C)CCOC1(CC2CCCCC2)CCC(C(C)(C)C)CC1 (stereo not drawn) | growth inhibition: 100% (active)
